Every entry's value here was drawn from the supplement of paper PMC7877785.

Assay: self-splicing fitness, log relative to wild type (ln ratio); higher = more splicing; Tetrahymena group I intron in knt gene, E. coli kanamycin selection, DiMSum; sequences stand for … in CUCUCU…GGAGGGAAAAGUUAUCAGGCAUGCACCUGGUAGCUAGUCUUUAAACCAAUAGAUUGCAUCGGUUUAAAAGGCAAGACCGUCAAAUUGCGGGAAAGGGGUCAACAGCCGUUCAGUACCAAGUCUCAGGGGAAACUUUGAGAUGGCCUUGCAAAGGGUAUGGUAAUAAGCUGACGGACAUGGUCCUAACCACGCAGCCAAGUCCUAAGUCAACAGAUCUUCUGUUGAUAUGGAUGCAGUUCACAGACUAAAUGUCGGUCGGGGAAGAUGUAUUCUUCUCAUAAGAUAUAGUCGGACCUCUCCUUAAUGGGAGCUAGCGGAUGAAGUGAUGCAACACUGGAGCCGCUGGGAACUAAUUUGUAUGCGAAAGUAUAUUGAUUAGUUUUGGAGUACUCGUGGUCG;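 note: selection with 25 µg/mL kanamycin versus none on LB agar overnight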
Settings: 30 °C
EXPERIMENTAL_READOUT: self-splicing fitness (ln)

Field: example entries. Status: answers known.
[
  {
    "SEQUENCE_CONTENT": "CCGUAGCAAUAUUACGCACG",
    "self-splicing fitness (ln)": -2.02
  },
  {
    "SEQUENCE_CONTENT": "CGGUAGCAAUAUUACGAUAU",
    "self-splicing fitness (ln)": -3.58
  }
]

Answer with reported self-splicing fitness (ln) of `AUAUAGCAAUAUUACGAGCA`
-2.32

Answer with reported self-splicing fitness (ln) of `UAACAGCAAUAUUACGCACG`
-1.17

Answer with reported self-splicing fitness (ln) of `CUUAAGCAAUAUUACGUAGU`
-3.14

Answer with reported self-splicing fitness (ln) of `CCCUAGCAAUAUUACGCCAU`
-4.3

====

Assay: self-splicing fitness, log relative to wild type (ln ratio); higher = more splicing; Tetrahymena group I intron in knt gene, E. coli kanamycin selection, DiMSum; sequences stand for … in CUCUCU…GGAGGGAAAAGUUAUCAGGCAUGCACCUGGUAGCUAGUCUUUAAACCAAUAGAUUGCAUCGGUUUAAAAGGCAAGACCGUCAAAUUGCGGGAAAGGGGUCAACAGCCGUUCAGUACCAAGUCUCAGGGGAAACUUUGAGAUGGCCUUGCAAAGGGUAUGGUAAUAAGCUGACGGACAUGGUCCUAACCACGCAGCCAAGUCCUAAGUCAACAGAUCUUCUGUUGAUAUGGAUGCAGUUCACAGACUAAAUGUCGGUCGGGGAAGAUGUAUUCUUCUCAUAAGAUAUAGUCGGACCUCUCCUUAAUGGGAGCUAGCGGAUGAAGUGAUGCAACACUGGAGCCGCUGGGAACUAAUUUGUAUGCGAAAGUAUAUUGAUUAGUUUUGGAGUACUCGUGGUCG
Details: 30 °C
We begin with a simple list: items and their reported self-splicing fitness (ln).
Form: value (number only, do not type unit).

[
  {
    "SEQUENCE_CONTENT": "CCGAAGCAAUAUUACGCUGU",
    "RECORDED_VALUE": -3.74
  }
]

Answer with reported self-splicing fitness (ln) of `UGACAGCAAUAUUACGAUCC`
-0.422

Answer with reported self-splicing fitness (ln) of `GAGGAGCAAUAUUACGAGAC`
-2.67

Answer with reported self-splicing fitness (ln) of `AGAAAGCAAUAUUACGGGAG`
-2.56
